Catalogue of melting point values

Worked cases, melting point given:
N#Cc1ccc(Oc2cc(F)ccc2F)c(S(=O)(=O)N2CCOCC2)c1
165 to 168 °C
O=[N+]([O-])c1ccc(Sc2cc(Cl)ccc2Cl)c(S(=O)(=O)N2CCSCC2)c1
189 to 191 °C
Cc1ccc(C)c(Sc2ccc([N+](=O)[O-])cc2S(=O)(=O)N2CCOCC2)c1
141 to 143 °C

IN: Record request: melting point value, item CC1CN(S(=O)(=O)c2cc([N+](=O)[O-])ccc2Oc2cc(Cl)ccc2Cl)CC(C)N1 (stereo not shown)
OUT: 161 to 163 °C

---

Biological target: CCR3 receptor (UniProt P51677)
Assay: CCR3 Receptor Binding Assay ([125I]-labeled human eotaxin/CCL11 displacement on cells)
Settings: Free (free form of the compound)
pKi: −log10 of the molar value.
QUANTITY_KIND: pKi

Worked cases, pKi given:
O=[N+]([O-])c1ccc(Oc2cc(Cl)ccc2Cl)c(S(=O)(=O)N2CCN(C3CCCCC3)CC2)c1
≥ 8.00
CC1CN(S(=O)(=O)c2cc(C#N)ccc2Oc2cc(F)ccc2F)CC(C)N1 (centres unmarked)
7.00 to 7.60
CN(C)C1CCN(S(=O)(=O)c2cc(C#N)ccc2Oc2cc(F)ccc2F)CC1
< 8.30
Cc1ccc(C)c(Sc2ccc(C#N)cc2S(=O)(=O)N2CCCN(C)CC2)c1
6.30 to 7.00
CC1CN(S(=O)(=O)c2cc([N+](=O)[O-])ccc2Sc2cc(Cl)ccc2Cl)CC(C)N1 (centres unmarked)
< 8.30
CN1CCN(S(=O)(=O)c2cc(C#N)ccc2Oc2cc(Cl)ccc2Cl)CC1
7.00 to 7.60
CC1CN(S(=O)(=O)c2cc(C#N)ccc2Sc2cc(Cl)ccc2Cl)CC(C)N1 (centres unmarked)
≥ 8.00
CN(C)C1CCN(S(=O)(=O)c2cc(C#N)ccc2Sc2cc(Cl)ccc2Cl)CC1
7.00 to 7.60
Cc1ccc(C)c(Sc2ccc(C#N)cc2S(=O)(=O)N2CCN(C3CCCC3)CC2)c1
7.00 to 7.60
Cc1ccc(C)c(Oc2ccc([N+](=O)[O-])cc2S(=O)(=O)N2CCN(C(C)C)CC2)c1
< 8.30

IN: Record request: pKi value, item `O=C1CN(S(=O)(=O)c2cc([N+](=O)[O-])ccc2Sc2cc(Cl)ccc2Cl)CCN1`
OUT: ≥ 8.00

IN: Record request: pKi value, item `Cc1ccc(C)c(Sc2ccc(C#N)cc2S(=O)(=O)N2CCNCC2)c1`
OUT: < 8.30

IN: Record request: pKi value, item `Cc1ccc(C)c(Sc2ccc(C#N)cc2S(=O)(=O)N2CCOCC2)c1`
OUT: < 8.30

IN: Record request: pKi value, item `O=[N+]([O-])c1ccc(Oc2cc(Cl)ccc2Cl)c(S(=O)(=O)N2CCOCC2)c1`
OUT: < 8.30

IN: Record request: pKi value, item `CC(C)N1CCN(S(=O)(=O)c2cc([N+](=O)[O-])ccc2Sc2cc(Cl)ccc2Cl)CC1`
OUT: ≥ 8.00

IN: Record request: pKi value, item `N#Cc1ccc(Sc2cc(Cl)ccc2Cl)c(S(=O)(=O)N2CCN(C3CCCC3)CC2)c1`
OUT: ≥ 8.00

IN: Record request: pKi value, item `O=[N+]([O-])c1ccc(Oc2cc(Cl)ccc2Cl)c(S(=O)(=O)N2CCC(N3CCCC3)CC2)c1`
OUT: 7.60 to 8.00
